MEASURED TARGET: Cytochrome P450 1A2 (Homo sapiens)
TEST PROTOCOL: p450-cyp1a2 (AID 410)
TEST CONDITIONS: recombinant CYP1A2, luciferin-ME demethylation, luminescence; series mostly up to 25.6 µM
Results filed as inconclusive are left out. The source made the active and inactive calls. The call rests on the fitted dose curve.
Hi there, use one of these labels in your reply, thanks! active, inactive

Observe how each entry below is paired with its result.
CS(=O)(=O)Nc1cccc(-c2nc(Nc3ccc(F)cc3)c3ccccc3n2)c1    active
NS(=O)(=O)c1cc2c(cc1Cl)N[C@@H](C(Cl)Cl)NS2(=O)=O    inactive
CC(C)(CO)[C@H](O)C(=O)NCCCO    inactive
c1ccc2c(c1)CCCc1cc(NCCN3CCOCC3)nnc1-2    inactive
C=CC1=C(C(=O)O)N2C(=O)[C@@H](NC(=O)/C(=N\OCC(=O)O)c3csc(N)n3)[C@@H]2SC1    inactive
COc1cc2ccc(=O)oc2c(O)c1O    active
NCCC(=O)N[C@@H](Cc1cnc[nH]1)C(=O)O    inactive
CC[N+](CC)(CC)CC[C@](O)(c1ccccc1)C1CCCCC1    inactive

Entry `O=C1C=CC(=O)c2c1ccc1c2ccc2ccccc21` : call = ?
active

Entry `CCC(=O)[C@@]1(C)[C@H](C)C[C@@H]2[C@@H]3CCC4=CC(=O)C=C[C@@]4(C)[C@H]3[C@H](O)C[C@]21C` : call = ?
inactive

Entry `NC(=O)c1ccc[n+]([C@@H]2O[C@H](COP(=O)([O-])OP(=O)(O)OC[C@H]3O[C@@H](n4cnc5c(N)ncnc54)[C@@H](O)[C@@H]3O)[C@@H](O)[C@@H]2O)c1` : call = ?
inactive
